molecular target: T1, SG115 (human, UniProt P01857 1-328 = IgG part); assay: ELISA, OD405 against dose (ng/mL, log axis 1-100)
T1 construct: also called modified IgG heavy chain constant region SG115
T1 sequence (P01857 other isoform, or with tags, fused parts or gaps limits assumed): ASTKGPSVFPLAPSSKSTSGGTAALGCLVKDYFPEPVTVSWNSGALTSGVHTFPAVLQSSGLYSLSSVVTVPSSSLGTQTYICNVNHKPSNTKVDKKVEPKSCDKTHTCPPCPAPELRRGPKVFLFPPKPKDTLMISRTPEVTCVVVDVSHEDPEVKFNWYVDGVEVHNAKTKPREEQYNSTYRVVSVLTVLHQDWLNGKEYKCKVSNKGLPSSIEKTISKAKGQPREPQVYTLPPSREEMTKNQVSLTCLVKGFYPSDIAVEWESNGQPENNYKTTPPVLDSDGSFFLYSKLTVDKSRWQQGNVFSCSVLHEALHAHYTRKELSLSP
experimentalEndpoint: binding result

binder="SKA0027 (antibody, V domains shown, Recombinant rabbit monoclonal from B-cell cloning, expressed in FreeStyle 293-F cells; the first screen used B-cell culture supernatant; also called Anti-SG115 Antibody; rabbit Anti Fc-Mutation Antibody) VH: QEQLVESGGGLVQPEGSLTLTCTASGFSFSSSDYMCWVRQAPGKGLEWIGCIYTGSGSTYYASWAKGRFTISKTSSTTVTLQMTSLTAADTATFFCARRGDSYSNYSFKLWGPGTLVTVSS VL: AFELTQTPASVEAAVGGTVTIKCQASQNIYSNLAWYQQKPGQPPKLLIYTASSLASGVSSRFKGSGSGTEFTLTISDLECDDAATYYCQCTYINNGYGNTFGGGTEVVVKG" result=binds
binder="SKA0001 (antibody, V domains shown, Recombinant rabbit monoclonal from B-cell cloning, expressed in FreeStyle 293-F cells; the first screen used B-cell culture supernatant; also called Anti-SG115 Antibody; rabbit Anti Fc-Mutation Antibody) VH: QSVEESGGRLVTPGTPLTLTCTVSGFSLSYYAMNWVRQAPGKGLEWIGIIGISGGTYYASWAKGRFTISKSSSTTVDLKMTSPTTEDTATYFCARGGSAWGDLWGQGTLVTVSS VL: DIVMTQTPSSVSAAVGGTVTINCQASQSISRLLAWYQQKPGQPPKVLMHDASDLASGVPSRFKGSGSGTEYTLTISDLECADAATYYCQSYYWGSSGDIGYPFGGGTEVVVKG" result=binds
binder="SKA0028 (antibody, V domains shown, Recombinant rabbit monoclonal from B-cell cloning, expressed in FreeStyle 293-F cells; the first screen used B-cell culture supernatant; also called Anti-SG115 Antibody; rabbit Anti Fc-Mutation Antibody) VH: QSVEESGGRLVTPGTPLTLTCTASGFTISSYHMSWVRQAPGKGLEWIGIIHGSGNMWYASWAKGRFTISRTSTTVDLEITSPTTEDTATYFCARIRFWASSNYYYFYLWGQGTLVTVSS VL: ALVMTQTPASVSEPVGGTVTINCQASQNIYSNLAWYQQKPGQRPRLLIYGASNLESGVPSRFRGSGSGTEFTLTISDLECADAATYYCQSAYWGNNNDGAFGGGTEVVVKG" result=binds
